Taken from paper PMC12864922.

- TARGET_OR_TEST_SYSTEM: TDP-43 (Homo sapiens, UniProt Q13148 1-414)
- Sequence (Q13148 whole entry): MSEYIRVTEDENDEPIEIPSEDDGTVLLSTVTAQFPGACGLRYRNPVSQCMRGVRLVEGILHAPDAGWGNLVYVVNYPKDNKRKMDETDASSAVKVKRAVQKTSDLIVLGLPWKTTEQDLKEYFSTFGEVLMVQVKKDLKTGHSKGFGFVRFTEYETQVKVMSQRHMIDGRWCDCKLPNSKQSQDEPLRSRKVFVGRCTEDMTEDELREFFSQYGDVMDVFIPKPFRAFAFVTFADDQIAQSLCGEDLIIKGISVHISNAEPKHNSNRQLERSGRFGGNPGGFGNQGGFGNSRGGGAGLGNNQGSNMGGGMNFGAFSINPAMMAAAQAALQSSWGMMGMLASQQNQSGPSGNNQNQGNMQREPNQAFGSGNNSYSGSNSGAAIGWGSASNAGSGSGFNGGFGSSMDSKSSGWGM
- PROCEDURE_SUMMARY: RNA Bind-n-Seq with designed 260-mer pool; 25 mM Tris-HCl, 150 mM KCl, 3 mM MgCl2, BSA (printed 500 mg/mL), 20 units/mL SUPERase IN; pH not stated; 500 nM RNA pool, 1 h, 4 C; TDP-43 5, 50, 500 nM; high values mean tight binding
- EXPERIMENTAL_PARAMETERS: protein: recombinant; tags: SBP (GST cleaved off with PreScission; pGEX-GST-SBP)
The full ranking holds about 9,900 sequences; the median of “r (bound/input frequency ratio)” is about 0.7, and the highest 2% start at about 6.5. Many of the other results were omitted from the sample, so the highest values are more common in it than they were.
Kindly state binding signal for each of the entries shown.

Query :: Request the reported binding signal associated with ENSMUSG00000061578.246|Ksr2 (ssRNA) RNA: GGGAGUUCUACAGUCCGACGAUCGCUUCGAUAUCCGCAUGCUACAGAACCUUCUCACCCCUUUGCAAAGCUCUUGCCGUCUGCACCCGGGACCCCGGGACCCACACAAGUUGUCCCCAUGUGAACAUCCUGCCUCUCCUGGUGACAUCUGUCUCUGGCUCAGCUUCUCUGCCUCUUACAGACAGUUUCCCUGUACAUUUGCUUAUGGCCCUGGGCUCCAGAGUCGCUGAAGACCACUCUCCACAGCAGCUGUAACCCCAUCUAACAAGCCCUGUUCUGGAUAUAUCUCUGUGGCCAGGGCUGGCUCUUGCGGUCGCACUAGUGUGGAAUUCUCGGGUGUCAAGG
Result :: 0.544 R (bound/input frequency ratio)

Query :: Thanks! And ENSMUSG00000061578.1309|Ksr2 (ssRNA) RNA: GGGAGUUCUACAGUCCGACGAUCGCUUCGAUAUCCGCAUGCUAUCUGCACCCAACUGAAUCUCCCACCCUCAAGUGUACCUCUCAGGAUAUCCCCAGGCACACGAAGAUGGAAUGGAAAGCCAGUGGGUAUCUCCCACCCACUUAGAUGCUGAUGGCCUGGGACUAUAAACAGGGACAGUUGGGUCUCCUAAGGAAUAGCUUCCAGGUCCAGGAUGCUGGCAUCUCCCAGAGAGAACUCCAUCCCCUGACCACCAAGGCCUUUGUAGAAGCAGGAAUCUCUUCCUCCUGUCCCACAGCCCCCACUCUUGCGGUCGCACUAGUGUGGAAUUCUCGGGUGUCAAGG ?
Result :: 0.602 R (bound/input frequency ratio)
